- METHOD_SUMMARY: Identifying Small Molecule Inhibitors of Pancreatic Cancer Stem Cells (Panc1, Spheroid) (AID 1259359);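 also: compound exposure lasted 48 h before reading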
- CONDITION_SET: Panc1 spheroid cancer stem cell viability; series mostly up to 46.1 µM
- Text: Progenitor-like cancer cells, often referred to as cancer stem cells (CSC), are believed to be the drivers of therapeutic resistance and rapid recurrence. CSCs are postulated to reside in specific niches characterized by low oxygen tension, limited nutrient supply, and high redox load. Selectively targeting CSC, alone or in combination with cytotoxic agents, as a means to produce durable remissions is an appealing concept. […]
Results filed as inconclusive are left out. Active and inactive are the calls of the source. Calls follow the shape of the dose curve; as a rule, active = well fitted cell-killing curve with a large enough effect; inconclusive = small, poorly fitted or top-dose-only effect, or effect the other way, or another doubt; inactive = no such curve, though single readings can be large or run the other way.
Classes used: T (active), F (inactive)

>>> class_assignment("CC(C)(C)OC(=O)CN(Cc1ccc(Cl)cc1)Cc1ccc([N+](=O)[O-])s1")
"T"
>>> class_assignment("CC(C)c1onc(-c2c(Cl)cccc2Cl)c1COc1ccc(/C=C/c2cccc(C(=O)O)c2)c(Cl)c1")
"T"
>>> class_assignment("CCC(=O)N[C@H]1CC[C@H](C(=O)N(C)c2ccc(-c3nc4ccccc4o3)cc2)C1")
"T"
>>> class_assignment("CCC(C)(C)C(=O)O[C@H]1C[C@@H](C)C=C2C=C[C@H](C)[C@H](CC[C@@H]3C[C@@H](O)CC(=O)O3)[C@H]21")
"F"
>>> class_assignment("S=C(NCc1ccc2c(c1)OCO2)N1CCN(c2ncnc3c2oc2ccccc23)CC1")
"T"
